# Target or test system: AVP-V2 sites (Rattus norvegicus, UniProt Q00788)
# Sequence (Q00788 whole entry): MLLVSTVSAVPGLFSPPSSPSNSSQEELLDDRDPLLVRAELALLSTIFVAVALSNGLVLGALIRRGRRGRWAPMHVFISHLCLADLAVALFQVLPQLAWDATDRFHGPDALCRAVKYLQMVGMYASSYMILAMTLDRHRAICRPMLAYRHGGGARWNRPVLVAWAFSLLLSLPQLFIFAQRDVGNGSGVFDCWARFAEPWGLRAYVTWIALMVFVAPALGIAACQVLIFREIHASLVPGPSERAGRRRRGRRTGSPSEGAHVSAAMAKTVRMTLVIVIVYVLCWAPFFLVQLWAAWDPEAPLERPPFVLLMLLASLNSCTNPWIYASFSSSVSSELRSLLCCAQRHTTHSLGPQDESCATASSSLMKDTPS
# Assay comment: [3H]AVP radioligand binding to rat kidney medulla crude membrane preparation (AVP-V2 sites)
# Condition: rat kidney medulla membranes; 2 nM [3H]AVP; 30 min at 30° C.; read-out: Receptor Binding Results IC50 (nM) [^3 H]-AVP-V2
*1 amine or outer side, *2 acyl side, *3 side chain or, on linkers, in order; H or OH if unused. Where a SMILES comes first, the peptide text is derived from it. [ ]: non-standard residue; d: D form. X12 = C=CCSC(=N[C@H](C(=O)[*:2])[C@@H](C)CC)[C@@H](Cc1ccccc1)N[*:1]; X14 = CCOC(=O)C(C(=O)OCC)C1C=NN([*:1])[C@H](C(=O)[*:2])C1; X2 = O=C([C@@H]1[C@@H](O)[C@@H](O)C=NN1[*:1])[*:2]; X4 = CN(C)CCNC1C=NN([*:1])[C@H](C(=O)[*:2])C1; X10 = O=C1CC[C@@H](C(=O)[*:2])N([*:1])N1; Piz(1,6-dehydro) = O=C(O)[C@@H]1CCC=NN1; X7 = CSC1=NN([*:1])[C@H](C(=O)[*:2])CC1; dPiz(1,6-dehydro) = O=C(O)[C@H]1CCC=NN1; dNMeCha = CN[C@H](CC1CCCCC1)C(=O)O; X5 = O=C([C@@H]1CCCNN1[*:1])[*:2]; X1 = O=C([C@H]1CCCNN1[*:1])[*:2]; dNMeF = CN[C@H](Cc1ccccc1)C(=O)O; dCha = N[C@H](CC1CCCCC1)C(=O)O
Rule for this label: True means IC50 is less than 7000 nM; False means IC50 is at least 7000 nM.

- Molecule: "CC[C@H](C)[C@@H]1NC(=O)[C@@H](Cc2ccccc2)NC(=O)[C@@H]2CCCN2C(=O)[C@@H](Cc2ccccc2)N(C)C(=O)[C@@H]2[C@@H](O)[C@@H](O)C=NN2C(=O)[C@H]2CCCNN2C1=O [Example 14] (cyclo(I[X1][X2][dNMeF]P[dF]))"
  Assigned label: "False"
- Molecule: "CC[C@H](C)[C@@H]1NC(=O)[C@@H](CC2CCCCC2)NC(=O)[C@@H]2CCCN2C(=O)[C@@H](CC2CCCCC2)N(C)C(=O)[C@@H]2CCCNN2C(=O)[C@H]2CCCNN2C1=O [Example 1] (cyclo(I[X1][X5][dNMeCha]P[dCha]))"
  Assigned label: "False"
- Molecule: "CC[C@H](C)[C@@H]1NC(=O)[C@@H](Cc2ccccc2)NC(=O)[C@@H]2CCCN2C(=O)[C@@H](Cc2ccccc2)N(C)C(=O)[C@@H]2CCC(SC)=NN2C(=O)[C@H]2CCC=NN2C1=O [Example 5] (cyclo(I[dPiz(1,6-dehydro)][X7][dNMeF]P[dF]))"
  Assigned label: "True"
- Molecule: "CC[C@H](C)[C@@H]1NC(=O)[C@@H](Cc2ccccc2)NC(=O)[C@@H]2CCCN2C(=O)[C@@H](Cc2ccccc2)N(C)C(=O)[C@@H]2CC(NCCN(C)C)C=NN2C(=O)[C@H]2CCC=NN2C1=O (stereo partly shown) [Example 16] (cyclo(I[dPiz(1,6-dehydro)][X4][dNMeF]P[dF]))"
  Assigned label: "False"
- Molecule: "CC[C@H](C)[C@@H]1NC[C@@H](Cc2ccccc2)NC(=O)[C@@H]2CCCN2C(=O)[C@@H](Cc2ccccc2)N(C)C(=O)[C@@H]2CCC=NN2C(=O)[C@H]2CCC=NN2C1=O [Example 7]"
  Assigned label: "False"
- Molecule: "CC[C@H](C)[C@@H]1NC(=O)[C@@H](Cc2ccccc2)NC(=O)[C@@H]2CCCN2C(=O)[C@@H](Cc2ccccc2)N(C)C(=O)[C@@H]2CCC(=O)NN2C(=O)[C@H]2CCC=NN2C1=O [Example 3] (cyclo(I[dPiz(1,6-dehydro)][X10][dNMeF]P[dF]))"
  Assigned label: "False"
- Molecule: "CC[C@H](C)[C@@H]1NC(=O)[C@@H](Cc2ccccc2)NC(=O)[C@@H]2CCCN2C(=O)[C@@H](Cc2ccccc2)N(C)C(=O)[C@@H]2[C@@H](O)[C@@H](O)C=NN2C(=O)[C@H]2CCC=NN2C1=O [Example 13] (cyclo(I[dPiz(1,6-dehydro)][X2][dNMeF]P[dF]))"
  Assigned label: "False"
- Molecule: "C=CCSC1=N[C@@H]([C@@H](C)CC)C(=O)N2N=CCC[C@@H]2C(=O)N2N=CCC[C@H]2C(=O)N(C)[C@H](Cc2ccccc2)C(=O)N2CCC[C@H]2C(=O)N[C@@H]1Cc1ccccc1 [Example 12] (cyclo(P[X12][dPiz(1,6-dehydro)][Piz(1,6-dehydro)][dNMeF]))"
  Assigned label: "False"
- Molecule: "CCOC(=O)C(C(=O)OCC)C1C=NN2C(=O)[C@H]3CCC=NN3C(=O)[C@H]([C@@H](C)CC)NC(=O)[C@@H](Cc3ccccc3)NC(=O)[C@@H]3CCCN3C(=O)[C@@H](Cc3ccccc3)N(C)C(=O)[C@@H]2C1 (stereo partly shown) [Example 17] (cyclo(I[dPiz(1,6-dehydro)][X14][dNMeF]P[dF]))"
  Assigned label: "True"
